Origin of the recorded values: paper PMC4838516

- tgt: KSHV Pr (Human herpesvirus 8 type P)
- Sequence (Q2HRB6 1-230): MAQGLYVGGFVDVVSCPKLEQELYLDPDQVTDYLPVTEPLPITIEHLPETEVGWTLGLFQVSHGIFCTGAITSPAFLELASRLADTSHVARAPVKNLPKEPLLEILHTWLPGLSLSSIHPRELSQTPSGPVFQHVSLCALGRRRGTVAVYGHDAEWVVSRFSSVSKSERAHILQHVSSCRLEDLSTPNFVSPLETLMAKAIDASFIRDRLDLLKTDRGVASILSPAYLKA
- assay-notes: Dose-response kinetic assay of KSHV Pr with fluorogenic P6R substrate
- Format: biochemical
- run-parameters: read-out: KSHV Pr IC50; P6R rhodamine110 substrate

{"smiles-input": "Nc1nc(-c2ccccc2)cs1", "tgt": "KSHV Pr (Human herpesvirus 8 type P)", "IC50": "> 500 µM"}
